target: T1, Mutant CD33-GFP M7 (R98D) on 293FT cells (UniProt P20138 18-364); assay: FACS, mutant CD33-GFP on 293FT cells
T1 construct: whole, on cells; not shown: GFP fused to CD33
T1 sequence (P20138 18-364 R98D): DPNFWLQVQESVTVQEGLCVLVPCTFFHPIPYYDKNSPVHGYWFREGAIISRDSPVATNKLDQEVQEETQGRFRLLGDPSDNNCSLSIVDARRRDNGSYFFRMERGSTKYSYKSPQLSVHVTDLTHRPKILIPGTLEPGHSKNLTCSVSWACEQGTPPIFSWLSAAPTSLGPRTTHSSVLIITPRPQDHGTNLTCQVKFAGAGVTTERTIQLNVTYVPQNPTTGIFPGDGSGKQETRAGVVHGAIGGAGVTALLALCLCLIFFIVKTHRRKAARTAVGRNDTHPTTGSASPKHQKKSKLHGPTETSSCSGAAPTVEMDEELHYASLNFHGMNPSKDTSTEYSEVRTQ
Listed next: entries and their corresponding FACS binding data.
measured.endpoint: FACS binding data

{"binder": "sdCD33_11 (VHH, sdAb from a naive llama phage library; also called 430; sdAb430) VHH: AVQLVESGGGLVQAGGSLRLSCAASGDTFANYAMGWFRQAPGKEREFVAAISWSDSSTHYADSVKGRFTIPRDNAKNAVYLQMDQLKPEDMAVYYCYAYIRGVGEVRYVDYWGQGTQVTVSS", "measured.endpoint": "FACS binding data", "reading": 98.5}
{"binder": "sdCD33_8 (VHH, sdAb from a naive llama phage library; also called 424; sdAb424) VHH: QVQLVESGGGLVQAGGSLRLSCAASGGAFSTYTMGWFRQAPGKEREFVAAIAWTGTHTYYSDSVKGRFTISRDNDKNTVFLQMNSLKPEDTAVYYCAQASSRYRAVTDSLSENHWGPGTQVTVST", "measured.endpoint": "FACS binding data", "reading": 97.2}
{"binder": "sdCD33_10 (VHH) VHH: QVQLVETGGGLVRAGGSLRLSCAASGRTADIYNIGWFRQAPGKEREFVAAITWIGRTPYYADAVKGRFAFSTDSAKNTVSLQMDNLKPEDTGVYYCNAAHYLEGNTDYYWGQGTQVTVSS", "measured.endpoint": "FACS binding data", "reading": 97.1}
{"binder": "sdCD33_7 (VHH, sdAb from a naive llama phage library; also called 420; sdAb420) VHH: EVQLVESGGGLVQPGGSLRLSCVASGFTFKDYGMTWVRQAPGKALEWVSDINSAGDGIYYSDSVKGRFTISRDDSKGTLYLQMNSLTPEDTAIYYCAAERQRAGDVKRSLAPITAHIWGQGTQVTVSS", "measured.endpoint": "FACS binding data", "reading": 74.8}
{"binder": "sdCD33_9 (VHH, sdAb from a naive llama phage library; also called 426; sdAb426) VHH: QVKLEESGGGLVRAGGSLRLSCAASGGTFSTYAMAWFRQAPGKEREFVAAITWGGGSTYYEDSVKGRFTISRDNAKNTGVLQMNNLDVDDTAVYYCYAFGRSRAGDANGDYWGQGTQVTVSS", "measured.endpoint": "FACS binding data", "reading": 99.1}
{"binder": "sdCD33_2 (VHH) VHH: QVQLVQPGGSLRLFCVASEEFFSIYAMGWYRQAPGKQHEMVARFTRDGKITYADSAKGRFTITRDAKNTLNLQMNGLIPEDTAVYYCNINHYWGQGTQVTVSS", "measured.endpoint": "FACS binding data", "reading": 0.48}
{"binder": "sdCD33_4 (VHH) VHH: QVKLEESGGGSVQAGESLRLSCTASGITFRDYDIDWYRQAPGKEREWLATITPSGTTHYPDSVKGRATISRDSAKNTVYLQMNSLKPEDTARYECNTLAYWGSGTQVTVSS", "measured.endpoint": "FACS binding data", "reading": 21.5}
{"binder": "sdCD33_6 (VHH, sdAb from a naive llama phage library; also called 416; sdAb416) VHH: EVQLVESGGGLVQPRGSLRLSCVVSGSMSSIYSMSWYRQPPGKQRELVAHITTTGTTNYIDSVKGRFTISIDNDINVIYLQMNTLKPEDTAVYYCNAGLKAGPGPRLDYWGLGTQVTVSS", "measured.endpoint": "FACS binding data", "reading": 98.6}
